- Assayed System: human 5HT2A receptor (Homo sapiens, UniProt P28223)
- Sequence (P28223 whole entry): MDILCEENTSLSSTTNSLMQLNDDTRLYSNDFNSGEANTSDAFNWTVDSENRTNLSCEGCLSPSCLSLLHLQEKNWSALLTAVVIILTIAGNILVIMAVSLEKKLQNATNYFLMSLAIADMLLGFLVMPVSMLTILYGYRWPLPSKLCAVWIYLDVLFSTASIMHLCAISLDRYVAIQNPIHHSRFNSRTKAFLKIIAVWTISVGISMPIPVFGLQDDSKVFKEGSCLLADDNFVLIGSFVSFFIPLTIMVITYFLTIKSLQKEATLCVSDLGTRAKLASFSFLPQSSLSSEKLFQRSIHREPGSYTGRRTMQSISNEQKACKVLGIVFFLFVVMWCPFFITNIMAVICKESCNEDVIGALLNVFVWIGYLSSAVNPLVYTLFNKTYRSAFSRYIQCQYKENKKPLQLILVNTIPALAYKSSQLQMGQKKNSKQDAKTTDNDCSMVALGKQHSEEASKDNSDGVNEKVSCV
Attribute Measured: pIC50
Scale: negative log10 of molar concentration, which is what pIC50 denotes.

Need pIC50, item COc1cc(C(=O)O)ccc1OCCCN1CCC(c2noc3cc(F)ccc23)CC1
7.86
